Recorded 2_3-Diphosphoglyceric acid for the following molecules
- Tested on: P. falciparum 3D7 trophozoites
- test: Metabolomic fingerprint profiling LC-MS
- Type: cell-based, Plasmodium falciparum
- applied.conditions: metabolite level change after treatment
Output: the number by itself.

Example results:
{"columns": ["molecule", "observed.measurement"],
 "data": [
  ["CN(C)c1ccc(C=Cc2nc(=O)c3ccccc3o2)cc1", 0.3655],
  ["CCN(CC)CCNc1ccnc2cc(Cl)ccc12", -0.3682],
  ["CCOC(=O)c1cnc2ccc(CC)cc2c1O", 0.3408],
  ["Cc1cccc(Nc2nc(N)c3ccccc3n2)c1", -0.1372]
]}

Lab note: "CNCCCNc1ccnc2cc(Cl)ccc12" gave 2_3-Diphosphoglyceric acid of -0.286

// 2_3-Diphosphoglyceric acid value for "COc1ccccc1CNC(=O)CCn1c(=O)[nH]c2ccsc2c1=O" : -0.2512

Record COc1ccc(NC(=O)C2c3ccccc3C(=O)N(CC(C)C)C2c2cccs2)cc1Cl (stereo not shown) , field 2_3-Diphosphoglyceric acid: -1.07

The recorded 2_3-Diphosphoglyceric acid for Cc1cc(NC(=O)C2c3ccccc3C(=O)N(CC(C)C)C2c2cccs2)no1 (stereo not shown) is -1.036

Measured 2_3-Diphosphoglyceric acid of "c1ccc2cc3c(Nc4ccc(N5CCOCC5)cc4)ccnc3cc2c1" : 0.06563

Data point: CCCCCCOC(=O)C1=C(C)NC(=O)NC1c1ccccc1F (stereo not shown) ; 2_3-Diphosphoglyceric acid = -0.3849

Summary for this molecule, "CCOC(=O)c1c(C)n(-c2ccc(Cl)cc2)c2ccc(OC(=O)C=Cc3ccccc3)cc12" : 2_3-Diphosphoglyceric acid is 0.1463

Record COc1ccc(Br)cc1C1Nc2ccc3ccccc3c2C2=C1C(=O)CC(c1ccccc1)C2 (stereo not shown) . Reported 2_3-Diphosphoglyceric acid: 0.06597

Lab note: CCC(c1ccccc1)c1nn2c(-c3cccs3)nnc2s1 (stereo not shown) gave 2_3-Diphosphoglyceric acid of -0.3467

Measured 2_3-Diphosphoglyceric acid, "Cc1ccc(-c2cc3nc4c(c(O)n3n2)CCCC4)cc1" : -0.6436

====

Reported dATP values are given for each entry in this list.
- Test system: P. falciparum 3D7 trophozoites
- test: Metabolomic fingerprint profiling LC-MS
- Assay type: cell-based, Plasmodium falciparum
- applied.conditions: metabolite dATP, S2 Table Metabolomics
Hey, just send me the number, nothing else.

Reference set, count: 3
{"columns": ["compound", "dATP"],
 "data": [
  ["Cc1ccc(N2C3c4ccccc4N(S(=O)(=O)c4ccc(C)cc4)C2c2ccccc2N3S(=O)(=O)c2ccc(C)cc2)cc1", 0.1879],
  ["OC(CNC1CCCCC1)Cn1c2ccccc2c2ccccc21 (stereo not shown)", 0.1129],
  ["O=C1C(O)=C([C@H]2CC[C@H](c3ccc(Cl)cc3)CC2)C(=O)c2ccccc21 [Atovaquone, reference compound]", 0.2506]
]}

Read the next record carefully.
// dATP lookup, compound = "CCOC(=O)c1cn(CC)c2cc(N3CCCCC3)c(F)cc2c1=O" , result: 0.6493

====

- Test system: U87-CD4-CCR5 or U87-CD4-CXCR4 cells
- test: U87 cell viability MTT
- Assay type: cell-based
- applied.conditions: 5µM
measure: U87 % Cell Death rep3 (R5 P24 Washout expt) (%)
Provide only the numeric value, understood in %.

Here is how some molecules turned out for U87 % Cell Death rep3 (R5 P24 Washout expt).
{"columns": ["item.smiles", "observed.measurement"],
 "data": [
  ["CCOC(=O)c1cnc2ccc(OC)cc2c1NCc1ccccc1", -10],
  ["CCN1CCN(c2cc(C)c3cc(NC(=O)c4ccc(OC)c(OC)c4)ccc3n2)CC1", 7.48],
  ["COc1ccc(C(=O)Nc2ccc3nc(N4CCCCC4)cc(C)c3c2)cc1OC", 3.19],
  ["COc1cc2cc(C(=O)Nc3ccccc3)c(N)nc2cc1OC", -0.103]
]}

"CCN(CC)c1cc(C)c2cc(NC(=O)c3cccc(OC)c3)ccc2n1" has a reported U87 % Cell Death rep3 (R5 P24 Washout expt) of 1.63
